B1: Pistol ribozyme (parent)
chain: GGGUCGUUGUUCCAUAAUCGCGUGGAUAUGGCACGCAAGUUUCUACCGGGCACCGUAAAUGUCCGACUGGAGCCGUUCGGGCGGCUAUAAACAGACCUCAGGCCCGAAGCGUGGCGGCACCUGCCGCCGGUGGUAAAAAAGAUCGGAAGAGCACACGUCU

variants of: B1; assay: aptazyme ON/OFF ratio, guanine; higher = stronger switching; co-transcriptional cleavage with and without guanine
The variants listed here are annotated with their aptazyme ON/OFF ratio.

{"MUTANT CODE": "U8C G9C U10A U11C C12U", "aptazyme ON/OFF ratio": 1.21}
{"MUTANT CODE": "U7G U8C G9A U11A C12U C13U", "aptazyme ON/OFF ratio": 1.05}
{"MUTANT CODE": "U7G G9U C12U C13U", "aptazyme ON/OFF ratio": 1.18}
{"MUTANT CODE": "U7A G9A U11G C12U C13A", "aptazyme ON/OFF ratio": 1.34}
{"MUTANT CODE": "U7G U8A G9A U10G U11G C12G", "aptazyme ON/OFF ratio": 1.24}
{"MUTANT CODE": "U7A U8C U10A C12A C13G", "aptazyme ON/OFF ratio": 1.15}
{"MUTANT CODE": "U7A U8G G9U U10A U11C C13A", "aptazyme ON/OFF ratio": 1.02}
{"MUTANT CODE": "U7A U8A G9U U11G C12G C13G", "aptazyme ON/OFF ratio": 1.22}
{"MUTANT CODE": "U7A U8G G9A U10A C12U C13U", "aptazyme ON/OFF ratio": 1.04}
{"MUTANT CODE": "U7C U8C G9U U10A U11C C12A C13G", "aptazyme ON/OFF ratio": 1.15}
